Condition Context: in ethanol, 299.15 K
Measured Endpoint: solubility (mole fraction)
The answer should be a number; do not append a unit.

For reference, reported solubility (mole fraction) for CCOC(=O)c1ccc(N)cc1 stands at 0.0982

* * *

Condition Context: in ethanol, 283.15 K
Measured Endpoint: solubility (mole fraction)
The answer should be a number; do not append a unit.

For reference, reported solubility (mole fraction) for CCOC(=O)c1ccc(N)cc1 stands at 0.0522

* * *

Condition Context: in n-propanol, 299.15 K
Measured Endpoint: solubility (mole fraction)

For reference, reported solubility (mole fraction) for CCOC(=O)c1ccc(N)cc1 stands at 0.085

* * *

Condition Context: in n-butanol, 307.15 K
Measured Endpoint: solubility (mole fraction)
The answer should be a number; do not append a unit.

For reference, reported solubility (mole fraction) for CCOC(=O)c1ccc(N)cc1 stands at 0.118

* * *

Condition Context: in ethanol, 324.15 K
Measured Endpoint: solubility (mole fraction)

For reference, reported solubility (mole fraction) for CCOC(=O)c1ccc(N)cc1 stands at 0.289

* * *

Condition Context: in n-butanol, 303.15 K
Measured Endpoint: solubility (mole fraction)
The answer should be a number; do not append a unit.

For reference, reported solubility (mole fraction) for CCOC(=O)c1ccc(N)cc1 stands at 0.0981

* * *

Condition Context: in ethanol, 291.15 K
Measured Endpoint: solubility (mole fraction)
The answer should be a number; do not append a unit.

For reference, reported solubility (mole fraction) for CCOC(=O)c1ccc(N)cc1 stands at 0.0712

* * *

Condition Context: in isobutanol, 311.15 K
Measured Endpoint: solubility (mole fraction)
The answer should be a number; do not append a unit.

For reference, reported solubility (mole fraction) for CCOC(=O)c1ccc(N)cc1 stands at 0.111

* * *

Condition Context: in n-propanol, 318.15 K
Measured Endpoint: solubility (mole fraction)
The answer should be a number; do not append a unit.

For reference, reported solubility (mole fraction) for CCOC(=O)c1ccc(N)cc1 stands at 0.211

* * *

Condition Context: in n-propanol, 324.15 K
Measured Endpoint: solubility (mole fraction)

For reference, reported solubility (mole fraction) for CCOC(=O)c1ccc(N)cc1 stands at 0.284

* * *

Condition Context: in isopentanol, 303.15 K
Measured Endpoint: solubility (mole fraction)
The answer should be a number; do not append a unit.

For reference, reported solubility (mole fraction) for CCOC(=O)c1ccc(N)cc1 stands at 0.0757

* * *

Condition Context: in n-butanol, 327.15 K
Measured Endpoint: solubility (mole fraction)

For reference, reported solubility (mole fraction) for CCOC(=O)c1ccc(N)cc1 stands at 0.323

* * *

Condition Context: in n-butanol, 315.15 K
Measured Endpoint: solubility (mole fraction)
The answer should be a number; do not append a unit.

For reference, reported solubility (mole fraction) for CCOC(=O)c1ccc(N)cc1 stands at 0.176

* * *

Condition Context: in isobutanol, 315.15 K
Measured Endpoint: solubility (mole fraction)
The answer should be a number; do not append a unit.

For reference, reported solubility (mole fraction) for CCOC(=O)c1ccc(N)cc1 stands at 0.14

* * *

Condition Context: in isobutanol, 324.15 K
Measured Endpoint: solubility (mole fraction)
The answer should be a number; do not append a unit.

For reference, reported solubility (mole fraction) for CCOC(=O)c1ccc(N)cc1 stands at 0.25

* * *

Condition Context: in n-butanol, 283.15 K
Measured Endpoint: solubility (mole fraction)
The answer should be a number; do not append a unit.

For reference, reported solubility (mole fraction) for CCOC(=O)c1ccc(N)cc1 stands at 0.037

* * *

Condition Context: in n-propanol, 315.15 K
Measured Endpoint: solubility (mole fraction)
The answer should be a number; do not append a unit.

For reference, reported solubility (mole fraction) for CCOC(=O)c1ccc(N)cc1 stands at 0.179

* * *

Condition Context: in isobutanol, 299.15 K
Measured Endpoint: solubility (mole fraction)
The answer should be a number; do not append a unit.

For reference, reported solubility (mole fraction) for CCOC(=O)c1ccc(N)cc1 stands at 0.0583

* * *

Condition Context: in isobutanol, 303.15 K
Measured Endpoint: solubility (mole fraction)
The answer should be a number; do not append a unit.

For reference, reported solubility (mole fraction) for CCOC(=O)c1ccc(N)cc1 stands at 0.071

* * *

Condition Context: in isopentanol, 287.15 K
Measured Endpoint: solubility (mole fraction)

For reference, reported solubility (mole fraction) for CCOC(=O)c1ccc(N)cc1 stands at 0.0371

* * *

Condition Context: in isopentanol, 311.15 K
Measured Endpoint: solubility (mole fraction)
The answer should be a number; do not append a unit.

For reference, reported solubility (mole fraction) for CCOC(=O)c1ccc(N)cc1 stands at 0.115

* * *

Condition Context: in isopentanol, 321.15 K
Measured Endpoint: solubility (mole fraction)

For reference, reported solubility (mole fraction) for CCOC(=O)c1ccc(N)cc1 stands at 0.206

* * *

Condition Context: in ethanol, 287.15 K
Measured Endpoint: solubility (mole fraction)
The answer should be a number; do not append a unit.

For reference, reported solubility (mole fraction) for CCOC(=O)c1ccc(N)cc1 stands at 0.0611

* * *

Condition Context: in n-butanol, 318.15 K
Measured Endpoint: solubility (mole fraction)
The answer should be a number; do not append a unit.

For reference, reported solubility (mole fraction) for CCOC(=O)c1ccc(N)cc1 stands at 0.207

* * *

Condition Context: in n-propanol, 303.15 K
Measured Endpoint: solubility (mole fraction)
The answer should be a number; do not append a unit.

For reference, reported solubility (mole fraction) for CCOC(=O)c1ccc(N)cc1 stands at 0.101

* * *

Condition Context: in n-butanol, 287.15 K
Measured Endpoint: solubility (mole fraction)
The answer should be a number; do not append a unit.

For reference, reported solubility (mole fraction) for CCOC(=O)c1ccc(N)cc1 stands at 0.0467

* * *

Condition Context: in ethanol, 318.15 K
Measured Endpoint: solubility (mole fraction)

For reference, reported solubility (mole fraction) for CCOC(=O)c1ccc(N)cc1 stands at 0.221

* * *

Condition Context: in isopentanol, 291.15 K
Measured Endpoint: solubility (mole fraction)
The answer should be a number; do not append a unit.

For reference, reported solubility (mole fraction) for CCOC(=O)c1ccc(N)cc1 stands at 0.0439

* * *

Condition Context: in n-propanol, 291.15 K
Measured Endpoint: solubility (mole fraction)

For reference, reported solubility (mole fraction) for CCOC(=O)c1ccc(N)cc1 stands at 0.0605

* * *

Condition Context: in n-propanol, 287.15 K
Measured Endpoint: solubility (mole fraction)
The answer should be a number; do not append a unit.

For reference, reported solubility (mole fraction) for CCOC(=O)c1ccc(N)cc1 stands at 0.0521

* * *

Condition Context: in n-propanol, 295.15 K
Measured Endpoint: solubility (mole fraction)
The answer should be a number; do not append a unit.

For reference, reported solubility (mole fraction) for CCOC(=O)c1ccc(N)cc1 stands at 0.071

* * *

Condition Context: in isopentanol, 283.15 K
Measured Endpoint: solubility (mole fraction)
The answer should be a number; do not append a unit.

For reference, reported solubility (mole fraction) for CCOC(=O)c1ccc(N)cc1 stands at 0.0335

* * *

Condition Context: in methanol, 311.15 K
Measured Endpoint: solubility (mole fraction)
The answer should be a number; do not append a unit.

For reference, reported solubility (mole fraction) for CCOC(=O)c1ccc(N)cc1 stands at 0.168

* * *

Condition Context: in isobutanol, 307.15 K
Measured Endpoint: solubility (mole fraction)
The answer should be a number; do not append a unit.

For reference, reported solubility (mole fraction) for CCOC(=O)c1ccc(N)cc1 stands at 0.0879

* * *

Condition Context: in n-butanol, 295.15 K
Measured Endpoint: solubility (mole fraction)

For reference, reported solubility (mole fraction) for CCOC(=O)c1ccc(N)cc1 stands at 0.0668

* * *

Condition Context: in ethanol, 315.15 K
Measured Endpoint: solubility (mole fraction)

For reference, reported solubility (mole fraction) for CCOC(=O)c1ccc(N)cc1 stands at 0.191

* * *

Condition Context: in n-butanol, 324.15 K
Measured Endpoint: solubility (mole fraction)
The answer should be a number; do not append a unit.

For reference, reported solubility (mole fraction) for CCOC(=O)c1ccc(N)cc1 stands at 0.281

* * *

Condition Context: in isopentanol, 307.15 K
Measured Endpoint: solubility (mole fraction)
The answer should be a number; do not append a unit.

For reference, reported solubility (mole fraction) for CCOC(=O)c1ccc(N)cc1 stands at 0.0917

* * *

Condition Context: in methanol, 318.15 K
Measured Endpoint: solubility (mole fraction)
The answer should be a number; do not append a unit.

For reference, reported solubility (mole fraction) for CCOC(=O)c1ccc(N)cc1 stands at 0.227

* * *

Condition Context: in ethanol, 307.15 K
Measured Endpoint: solubility (mole fraction)
The answer should be a number; do not append a unit.

For reference, reported solubility (mole fraction) for CCOC(=O)c1ccc(N)cc1 stands at 0.135
